B1: CPEB3 Ribozyme (parent)
chain: UAACAGGGGGCCACAGCAGAAGCGUUCACGUCGCAGCCCCUGUCAGAUUCUGGUGAAUCUGCGAAUUCUGCUGUAUAUCUC

- Variants of: B1
- Protocol description: self-cleavage, relative activity (ratio to wild type); higher = more cleavage; in vitro, sequencing
Readings of self-cleavage for the listed variants
Give a plain numeric answer without units written out.

Some solved entries appear below for comparison.
The measured self-cleavage associated with UAACAGGGGGCCACAGCAGAAGCGUUCGCGUCGCAGCCCCUGUCAGAUUCUCGUGAAUCUGCGAAUUCUGCUGUAUAUCUC [A28G G52C] reads 0.42

Record summary for UAACAGGGGGCCACAGCUGAAGCGUUCACGUCGCAGCCCCUGUCAGAUUCUGGUGAAUCUGCGAAUUCUGCUAUAUAUCUC [A18U G73A] : reported self-cleavage = 0.61

The reported value for UAACAUGGGGCCACUGCAGAAGCGUUCACGUCGCAGCCCCUGUCAGAUUCUGGUGAAUCUGCGAAUUCUGCUGUAUAUCUC [G6U A15U] in terms of self-cleavage is 0.41

Measured self-cleavage, UAACAGGGGGCCACAGCAGAAGCGUUCACGUCGCAGCCCCAGGCAGAUUCUGGUGAAUCUGCGAAUUCUGCUGUAUAUCUC [U41A U43G] : 0.4

Sure, the documented self-cleavage for UAACAGGGGGCCACAGCAGAAGCGUUCACGUCGCAGCCCGUGUCAGAUUCUGGUGAAUCUGCGAAUUCUGCUGUAUAUCCC [C40G U80C] is 0.19

Continuing:
The variant identified as UAACAGGGGGCCGCAGCAGAAGCGUUCACGUCGCAGCCCCUGUCAGAUUCUGGUGAAUCUGCGAAUUCUCCUGUAUAUCUC [A13G G70C] registered its self-cleavage at 0.45

In plain terms, UAACAGGGGGCCACAGCAGAGGCGUUCACGUCGCAGCCCCUGUCAGAUUCUGGUGAAUCUGCGAAUUCUGCUGUAUUUCUC [A21G A77U] has a documented self-cleavage of 0.71
